Molecular target: hDGAT1 (Homo sapiens)
Sequence (O75907 1-488): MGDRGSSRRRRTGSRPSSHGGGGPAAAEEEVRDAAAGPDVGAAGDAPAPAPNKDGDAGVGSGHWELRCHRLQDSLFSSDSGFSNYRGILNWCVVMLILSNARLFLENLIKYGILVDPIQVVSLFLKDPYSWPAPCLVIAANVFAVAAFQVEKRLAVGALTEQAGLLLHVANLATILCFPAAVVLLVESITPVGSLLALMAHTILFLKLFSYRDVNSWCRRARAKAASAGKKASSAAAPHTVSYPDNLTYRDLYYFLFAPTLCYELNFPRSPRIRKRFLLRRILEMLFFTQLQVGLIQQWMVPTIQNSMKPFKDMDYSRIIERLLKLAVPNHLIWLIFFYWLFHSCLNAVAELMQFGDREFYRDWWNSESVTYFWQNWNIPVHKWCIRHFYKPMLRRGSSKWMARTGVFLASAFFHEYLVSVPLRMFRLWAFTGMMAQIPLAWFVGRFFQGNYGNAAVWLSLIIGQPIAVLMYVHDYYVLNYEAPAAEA
Assay: In-vitro DGAT1 assay (14C oleoyl CoA, hDGAT1 microsomes from Sf9 cells)
Settings: read-out: % Inhibition of hDGAT1
measure name: inhibition at 1 µM

smiles text | experimental system | inhibition at 1 µM
Cc1ccc(NC(=S)Nc2ccc(-c3ccc4c(c3)CN([C@H](C(=O)O)C(C)C)C4=O)cc2)cc1 | hDGAT1 (Homo sapiens) | 10 to 50%
CC(C)(C)c1ccc(C(=O)Nc2ccc(-c3ccc4c(c3)C(=O)N(C(C)(C)C(=O)O)C4)cc2)cc1 | hDGAT1 (Homo sapiens) | > 50%
COc1cc(NC(=O)c2ccc(C(C)(C)C)cc2)ccc1-c1ccc2c(c1)C(=O)N([C@H](C(=O)O)C(C)C)C2 | hDGAT1 (Homo sapiens) | 10 to 50%

Sure, the documented inhibition at 1 µM for `CC(C)[C@@H](C(=O)O)N1Cc2ccc(-c3ccc(NC(=O)Nc4ccccc4Cl)cn3)cc2C1=O` is > 50%

Sure, the documented inhibition at 1 µM for `CC(C)[C@@H](C(=O)O)N1Cc2ccc(-c3ccc(NC(=S)Nc4cccc(C#N)c4)cc3)cc2C1=O` is 10 to 50%

Sure, the documented inhibition at 1 µM for `COc1ccc(C(=O)Nc2ccc(-c3ccc4c(c3)CN([C@H](C(=O)O)C(C)C)C4=O)cc2)cc1` is 10 to 50%

Sure, the documented inhibition at 1 µM for `COc1ccc(C(=O)Nc2ccc(-c3ccc4c(c3)C(=O)N([C@H](C(=O)O)C(C)C)C4)cc2)c(OC)c1` is > 50%

Sure, the documented inhibition at 1 µM for `CC(C)[C@@H](C(=O)O)N1Cc2ccc(-c3ccc(NC(=O)c4c(F)cccc4F)cc3)cc2C1=O` is 10 to 50%

Sure, the documented inhibition at 1 µM for `CC(C)[C@@H](C(=O)O)N1Cc2ccc(-c3ccc(NC(=O)Nc4ccc(Cl)cc4Oc4ccccc4)cn3)cc2C1=O` is > 50%

###

Target: UniProt O75907
Assay: In-vitro DGAT1 assay (14C oleoyl CoA, hDGAT1 microsomes from Sf9 cells)
Details: read-out: % Inhibition of hDGAT1
measure name: inhibition at 1 µM

smiles text | inhibition at 1 µM
CC(C)[C@@H](C(=O)O)N1Cc2ccc(-c3ccc(NC(=O)c4ccccc4Cl)cc3)cc2C1=O | 10 to 50%
CC(C)[C@@H](C(=O)O)N1Cc2ccc(-c3ccc(NC(=O)c4ccc5ccccc5c4)cc3)cc2C1=O | > 50%
Cc1cc(C)c(C(=O)Nc2ccc(-c3ccc4c(c3)C(=O)N([C@H](C(=O)O)C(C)C)C4)cc2)c(C)c1 | 10 to 50%

# ---- query compound ----
Sure, the documented inhibition at 1 µM for `CC(C)[C@@H](C(=O)O)N1Cc2ccc(-c3ccc(NC(=O)c4cccnc4Cl)cc3)cc2C1=O` is > 50%

###

Molecular target: hDGAT1 (Homo sapiens, UniProt O75907)
Sequence (O75907 1-488): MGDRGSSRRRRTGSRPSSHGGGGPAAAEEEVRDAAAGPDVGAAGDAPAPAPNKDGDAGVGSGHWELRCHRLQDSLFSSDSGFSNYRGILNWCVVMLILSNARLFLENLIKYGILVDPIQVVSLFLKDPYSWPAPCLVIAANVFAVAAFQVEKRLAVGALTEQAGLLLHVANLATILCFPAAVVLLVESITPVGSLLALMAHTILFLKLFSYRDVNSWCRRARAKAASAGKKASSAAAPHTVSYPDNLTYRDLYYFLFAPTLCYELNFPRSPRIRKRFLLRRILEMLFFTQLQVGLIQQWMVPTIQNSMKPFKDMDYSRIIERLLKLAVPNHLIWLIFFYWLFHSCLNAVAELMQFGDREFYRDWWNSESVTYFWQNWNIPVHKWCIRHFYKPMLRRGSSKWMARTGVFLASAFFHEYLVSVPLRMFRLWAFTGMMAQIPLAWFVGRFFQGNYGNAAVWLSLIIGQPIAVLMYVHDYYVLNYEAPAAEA
Assay: In-vitro DGAT1 assay (14C oleoyl CoA, hDGAT1 microsomes from Sf9 cells)
Conditions: at 1 μM
measure name: % Inhibition of hDGAT1

smiles text | observed result
CC(C)[C@@H](C(=O)O)N1Cc2ccc(-c3ccc(NC(=O)c4ccc(-c5ccccc5)cc4)cc3C(F)(F)F)cc2C1=O | + (10-50% Inhibition)
O=C(Nc1ccc(-c2ccc3c(c2)C(=O)N([C@H]2CC[C@H](C(=O)O)CC2)C3)cc1)c1ccc(Cl)cc1 | + (10-50% Inhibition)
O=C(Nc1ccc(-c2ccc3c(c2)C(=O)N(C24C[C@@H]5C[C@@H](CC(C(=O)O)(C5)C2)C4)C3)cc1)c1ccc(Cl)cc1 | + (10-50% Inhibition)

###

Target: hDGAT1 (Homo sapiens)
Assay: In-vitro DGAT1 assay (14C oleoyl CoA, hDGAT1 microsomes from Sf9 cells)
Conditions: read-out: % Inhibition of hDGAT1
Reported inhibition at 1 µM values for the following compounds.

Sure, the documented inhibition at 1 µM for `CC(C)[C@@H](C(=O)O)N1Cc2ccc(-c3ccc(NC(=O)c4c(Cl)cccc4Cl)cc3)cc2C1=O` is 10 to 50%

Sure, the documented inhibition at 1 µM for `CC(C)[C@@H](C(=O)O)N1Cc2ccc(-c3ccc(NS(=O)(=O)c4ccc(C(F)(F)F)cc4)cc3)cc2C1=O` is 10 to 50%

Sure, the documented inhibition at 1 µM for `CC(C)[C@@H](C(=O)O)N1Cc2cc(-c3ccc(NS(=O)(=O)c4cccc(Cl)c4)cc3)ccc2C1=O` is 10 to 50%

Sure, the documented inhibition at 1 µM for `CCCCCCCCc1ccc(C(=O)Nc2ccc(-c3ccc4c(c3)C(=O)N([C@H](C(=O)O)C(C)C)C4)cc2)cc1` is > 50%

Sure, the documented inhibition at 1 µM for `CC(C)[C@@H](C(=O)O)N1Cc2cc(-c3ccc(NC(=O)Nc4ccc(C#N)cc4)cc3)ccc2C1=O` is > 50%

Sure, the documented inhibition at 1 µM for `CC(C)[C@@H](C(=O)O)N1Cc2ccc(-c3ccc(NC(=S)Nc4ccc(Cl)cc4)cc3)cc2C1=O` is 10 to 50%

###

Molecular target: hDGAT1 (Homo sapiens, UniProt O75907)
Experiment: In-vitro DGAT1 assay (14C oleoyl CoA, hDGAT1 microsomes from Sf9 cells)
Conditions: read-out: % Inhibition of hDGAT1
measure name: inhibition at 1 µM

These recorded examples may help you get a feel for the data.
smiles text | inhibition at 1 µM
CC(C)[C@@H](C(=O)O)N1Cc2cc(-c3ccc(NC(=O)Nc4ccccc4)cc3)ccc2C1=O | 10 to 50%
COc1ccc(C(=O)Nc2ccc(-c3ccc4c(c3)C(=O)N([C@H](C(=O)O)C(C)C)C4)cc2)cc1OC | 10 to 50%

Sure, the documented inhibition at 1 µM for `CC(C)[C@@H](C(=O)O)N1Cc2ccc(-c3ccc(NS(=O)(=O)c4ccc(F)cc4F)cc3)cc2C1=O` is 10 to 50%

Sure, the documented inhibition at 1 µM for `CC(C)[C@@H](C(=O)O)N1Cc2cc(-c3ccc(NC(=O)c4ccc(C(C)(C)C)cc4)cc3)ccc2C1=O` is 10 to 50%

###

Biological target: UniProt:O75907
Assay: In-vitro DGAT1 assay (14C oleoyl CoA, hDGAT1 microsomes from Sf9 cells)
Details: read-out: % Inhibition of hDGAT1
Reported inhibition at 1 µM values for the following compounds.

These recorded examples may help you get a feel for the data.
smiles text | measure name | observed result
CC(C)[C@@H](C(=O)O)N1Cc2ccc(-c3ccc(NC(=O)c4ccc(OC(F)(F)F)cc4)cc3F)cc2C1=O | inhibition at 1 µM | > 50%
CC(C)[C@H](C(=O)O)N1Cc2cc(-c3ccc(NC(=O)Nc4cccc(C(F)(F)F)c4)cc3)ccc2C1=O | inhibition at 1 µM | 10 to 50%
CC(C)[C@@H](C(=O)O)N1Cc2ccc(-c3ccc(NC(=O)c4nnc(-c5ccccc5)s4)cc3)cc2C1=O | inhibition at 1 µM | > 50%

# ---- query compound ----
Sure, the documented inhibition at 1 µM for `CC(C)[C@@H](C(=O)O)N1Cc2ccc(-c3ccc(NC(=O)Nc4ccccc4F)cc3)cc2C1=O` is 10 to 50%
